# assay_target: Rhizobium meliloti anthranilate synthase, monomeric (SEQ ID NO: 7) (Rhizobium meliloti, UniProt P15395)
# Sequence (P15395 1-729): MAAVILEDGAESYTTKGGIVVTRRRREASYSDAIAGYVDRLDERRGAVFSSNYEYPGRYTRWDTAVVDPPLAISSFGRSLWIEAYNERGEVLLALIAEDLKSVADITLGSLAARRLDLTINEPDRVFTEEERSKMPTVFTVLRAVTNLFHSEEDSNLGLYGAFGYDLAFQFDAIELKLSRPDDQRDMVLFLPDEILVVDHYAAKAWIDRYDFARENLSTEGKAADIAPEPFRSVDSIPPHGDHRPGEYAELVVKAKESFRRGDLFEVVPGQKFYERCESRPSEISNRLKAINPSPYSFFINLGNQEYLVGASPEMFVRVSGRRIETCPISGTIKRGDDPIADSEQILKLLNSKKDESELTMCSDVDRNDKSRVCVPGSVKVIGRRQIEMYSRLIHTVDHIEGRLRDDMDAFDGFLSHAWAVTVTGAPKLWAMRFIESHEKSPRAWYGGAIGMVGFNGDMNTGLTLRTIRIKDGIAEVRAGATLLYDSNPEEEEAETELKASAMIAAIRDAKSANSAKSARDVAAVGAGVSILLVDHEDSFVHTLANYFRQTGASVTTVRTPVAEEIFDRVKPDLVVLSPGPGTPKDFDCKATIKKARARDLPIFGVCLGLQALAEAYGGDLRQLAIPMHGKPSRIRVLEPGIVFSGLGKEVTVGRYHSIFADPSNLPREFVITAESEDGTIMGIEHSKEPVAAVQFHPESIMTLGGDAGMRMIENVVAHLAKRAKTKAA
pIC50: −log10 of the molar value.
property_name: pIC50

Request: Consider the compound N[C@@H](Cc1c[nH]c2ccccc12)C(=O)O and give its measured pIC50.
Response: ~5.00
